# System: L1210 leukemia ip in BDF1 mice, survival T/C
# assay_protocol: NCI In Vivo Anticancer Drug Screen. Data for tumor model L1210 Leukemia (intraperitoneal) in B6D2F1 (BDF1) mice
# conditions_used: endpoint: mean survival time; dose: 50.0 mg/kg/injection; schedule: Q01DX001 (ip); vehicle: carboxymethylcellulose (CMC); higher = longer survival
Toxic doses and inconclusive results are not listed.
outcome_measure: T/C

> print(dat)
                                   compound                              assay.target  outcome.measure   measured.result
1  O=[N+]([O-])c1ccccc1SSc1ccccc1[N+](=O)[O-]  L1210 leukemia ip in BDF1 mice, survival T/C              T/C  105 % of control
2  COC1=C(Nc2cccc(C)c2)C(=O)C(OC)=C(Nc2cccc(C)c2)C1=O  L1210 leukemia ip in BDF1 mice, survival T/C              T/C   94 % of control
3                     COc1cccc(C2=CCCCC2)c1  L1210 leukemia ip in BDF1 mice, survival T/C              T/C   96 % of control

Q) Recall the reported T/C of COC(=O)CC(=O)c1ccc2ccccc2n1 on L1210 leukemia ip in BDF1 mice, survival T/C and write it down.
A) 108 % of control

Q) Give L1210 leukemia ip in BDF1 mice, survival T/C T/C for the following compound: NC(=S)N/N=C/c1cc2c(cc1[N+](=O)[O-])OCO2
A) 98 % of control

Q) Fill: T/C (L1210 leukemia ip in BDF1 mice, survival T/C) for this compound CC(Br)(C(CC(=O)C1CC1)c1ccccc1)[N+](=O)[O-] (configuration not stated)
A) 108 % of control

Q) Lab note: L1210 leukemia ip in BDF1 mice, survival T/C assay, enter T/C for CCOC(=O)/C(C(=O)c1ccccc1)=C(\OC(=O)c1ccccc1)c1ccccc1 here
A) 96 % of control

Q) Look up and report T/C, with L1210 leukemia ip in BDF1 mice, survival T/C as system, for O=C(c1ccccc1)c1c(-c2ccccc2)c(-c2ccccc2)n(-c2ccccc2)c1C(=O)c1ccccc1
A) 94 % of control

Q) Identify measured T/C obtained with L1210 leukemia ip in BDF1 mice, survival T/C for C(=Nc1ccccc1)c1ccccc1 .
A) 98 % of control

Q) Report T/C under test system L1210 leukemia ip in BDF1 mice, survival T/C for O=C(O)CSc1ccc([N+](=O)[O-])cn1 .
A) 115 % of control

Q) Using L1210 leukemia ip in BDF1 mice, survival T/C as the test system, report measured T/C of O=C1C(Br)=C(Br)c2ccccc21 .
A) 100 % of control

Q) Enter recorded T/C with L1210 leukemia ip in BDF1 mice, survival T/C for CCCC(C)C(O)C(C)C (configuration not stated) here.
A) 93 % of control

All figures here come from PubChem BioAssay AID248.
